test system: PPARa:RXRa (NR concentration 270 nM, RXRa partner concentration 90 nM); test: PBM binding z-score (relative to random genomic background probes); higher = stronger binding; sequences stand for … in GC…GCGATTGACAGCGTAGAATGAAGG
readout: PBM binding z-score

monomer.sequence: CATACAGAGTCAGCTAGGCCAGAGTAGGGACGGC
system.tested: PPARa:RXRa (NR concentration 270 nM, RXRa partner concentration 90 nM)
readout: PBM binding z-score
quantitative.readout: -0.478

monomer.sequence: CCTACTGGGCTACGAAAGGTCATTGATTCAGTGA
system.tested: PPARa:RXRa (NR concentration 270 nM, RXRa partner concentration 90 nM)
readout: PBM binding z-score
quantitative.readout: 4.28

monomer.sequence: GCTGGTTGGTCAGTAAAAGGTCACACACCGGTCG
system.tested: PPARa:RXRa (NR concentration 270 nM, RXRa partner concentration 90 nM)
readout: PBM binding z-score
quantitative.readout: 4.38

monomer.sequence: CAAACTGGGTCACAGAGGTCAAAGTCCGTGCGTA
system.tested: PPARa:RXRa (NR concentration 270 nM, RXRa partner concentration 90 nM)
readout: PBM binding z-score
quantitative.readout: 6.5

monomer.sequence: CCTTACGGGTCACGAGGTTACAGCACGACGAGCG
system.tested: PPARa:RXRa (NR concentration 270 nM, RXRa partner concentration 90 nM)
readout: PBM binding z-score
quantitative.readout: 6.14

monomer.sequence: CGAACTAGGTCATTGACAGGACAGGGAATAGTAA
system.tested: PPARa:RXRa (NR concentration 270 nM, RXRa partner concentration 90 nM)
readout: PBM binding z-score
quantitative.readout: 4.65

monomer.sequence: TCATATAGCTAAAAGGTGAAAGTCGGTGTGGTAA
system.tested: PPARa:RXRa (NR concentration 270 nM, RXRa partner concentration 90 nM)
readout: PBM binding z-score
quantitative.readout: 2.26

monomer.sequence: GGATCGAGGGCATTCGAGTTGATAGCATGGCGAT
system.tested: PPARa:RXRa (NR concentration 270 nM, RXRa partner concentration 90 nM)
readout: PBM binding z-score
quantitative.readout: 1.47

monomer.sequence: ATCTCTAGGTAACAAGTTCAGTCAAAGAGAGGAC
system.tested: PPARa:RXRa (NR concentration 270 nM, RXRa partner concentration 90 nM)
readout: PBM binding z-score
quantitative.readout: 1.5

monomer.sequence: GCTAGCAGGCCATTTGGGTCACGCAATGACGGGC
system.tested: PPARa:RXRa (NR concentration 270 nM, RXRa partner concentration 90 nM)
readout: PBM binding z-score
quantitative.readout: 2.23

monomer.sequence: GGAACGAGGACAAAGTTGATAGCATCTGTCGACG
system.tested: PPARa:RXRa (NR concentration 270 nM, RXRa partner concentration 90 nM)
readout: PBM binding z-score
quantitative.readout: 2.4

monomer.sequence: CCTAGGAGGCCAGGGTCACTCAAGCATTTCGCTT
system.tested: PPARa:RXRa (NR concentration 270 nM, RXRa partner concentration 90 nM)
readout: PBM binding z-score
quantitative.readout: 3

monomer.sequence: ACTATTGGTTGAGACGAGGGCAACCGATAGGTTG
system.tested: PPARa:RXRa (NR concentration 270 nM, RXRa partner concentration 90 nM)
readout: PBM binding z-score
quantitative.readout: 0.62

monomer.sequence: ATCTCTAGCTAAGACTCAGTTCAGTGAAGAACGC
system.tested: PPARa:RXRa (NR concentration 270 nM, RXRa partner concentration 90 nM)
readout: PBM binding z-score
quantitative.readout: -0.233

monomer.sequence: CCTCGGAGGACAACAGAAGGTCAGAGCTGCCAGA
system.tested: PPARa:RXRa (NR concentration 270 nM, RXRa partner concentration 90 nM)
readout: PBM binding z-score
quantitative.readout: 1.78

monomer.sequence: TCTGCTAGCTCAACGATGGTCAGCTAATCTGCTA
system.tested: PPARa:RXRa (NR concentration 270 nM, RXRa partner concentration 90 nM)
readout: PBM binding z-score
quantitative.readout: -0.335

monomer.sequence: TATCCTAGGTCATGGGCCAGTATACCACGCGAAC
system.tested: PPARa:RXRa (NR concentration 270 nM, RXRa partner concentration 90 nM)
readout: PBM binding z-score
quantitative.readout: 4.57

monomer.sequence: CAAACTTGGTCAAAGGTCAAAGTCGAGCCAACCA
system.tested: PPARa:RXRa (NR concentration 270 nM, RXRa partner concentration 90 nM)
readout: PBM binding z-score
quantitative.readout: 6.84

monomer.sequence: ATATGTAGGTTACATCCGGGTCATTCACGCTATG
system.tested: PPARa:RXRa (NR concentration 270 nM, RXRa partner concentration 90 nM)
readout: PBM binding z-score
quantitative.readout: 4.8

monomer.sequence: TAACCTAGGTCAGATCGGGCCAGTATACGCTATA
system.tested: PPARa:RXRa (NR concentration 270 nM, RXRa partner concentration 90 nM)
readout: PBM binding z-score
quantitative.readout: 2.29

monomer.sequence: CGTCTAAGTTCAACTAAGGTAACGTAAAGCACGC
system.tested: PPARa:RXRa (NR concentration 270 nM, RXRa partner concentration 90 nM)
readout: PBM binding z-score
quantitative.readout: 3.67
